Target Desc: MeCP2-TBL1 interaction (MeCP2-SmBiT / TBL1-LgBiT) (Mus musculus, UniProt Q9QXE7)
Construct: expressed in transfected cells; crude lysate used as a cell-free assay
Sequence (Q9QXE7 166-527): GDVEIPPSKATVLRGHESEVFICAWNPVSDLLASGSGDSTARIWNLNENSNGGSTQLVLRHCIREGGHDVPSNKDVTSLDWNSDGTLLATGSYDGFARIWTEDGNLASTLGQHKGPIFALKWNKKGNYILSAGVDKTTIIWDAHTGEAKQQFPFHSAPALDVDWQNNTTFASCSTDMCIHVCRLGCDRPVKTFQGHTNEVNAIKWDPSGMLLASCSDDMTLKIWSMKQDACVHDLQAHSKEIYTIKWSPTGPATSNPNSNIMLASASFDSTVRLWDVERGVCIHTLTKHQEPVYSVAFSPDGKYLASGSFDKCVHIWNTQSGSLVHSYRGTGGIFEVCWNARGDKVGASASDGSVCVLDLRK
Experiment Notes: MeCP2-TBL1 NanoLuc luciferase complementation assay (cell-free, extracts of transfected HEK293 cells)
Type: binding, human
Cond: dose response 0.3–60 μM, triplicate, 30 min, luminescence normalized to DMSO; read-out: IC50, inhibition of MeCP2-TBL1 luminescence signal
Measured Endpoint: IC50

INSERT INTO measurements (substance, measured_endpoint, reading) VALUES
  ('Ac-ETVLPIYKRKTR-NH2 [K304Y mutant peptide]', 'IC50', '~40 µM');

* * *

Test system: PRKACA-PRKAR2A interaction (SmBiT-PRKACA / LgBiT-PRKAR2A), protein kinase A
Set-up: NanoLuc complementation counter-screen in cell extract, PRKACA with PRKAR2A, loss of luminescence, detects NanoLuc interference
Cond: counter-screen for NanoLuc interference, 0.5 h, 20 µM, inhibitor, Inh (PKA)
Structures can show the parent of a compound that is named as a salt.
Recorded Inh (PKA) by entry
Measured Endpoint: Inh (PKA) (%)

INSERT INTO measurements (compound, measured_endpoint, reading) VALUES
  ('C[C@@H](N)[C@H]1CC[C@H](C(=O)Nc2ccncc2)CC1 [UM0141498:02, Y-27632]', 'Inh (PKA)', -5.28),
  ('CNC(=O)c1cc(Oc2ccc(NC(=O)Nc3ccc(Cl)c(C(F)(F)F)c3)c(F)c2)ccn1 [UM0141611:02, Regorafenib]', 'Inh (PKA)', 5.988),
  ('Cc1cccc(-c2[nH]c(C(C)(C)C)nc2-c2ccc3c(c2)OCO3)n1 [UM0142475:01, SB505124]', 'Inh (PKA)', 12.17),
  ('CC(=O)Oc1cc2c(s1)CCN(C(C(=O)C1CC1)c1ccccc1F)C2 (stereo not drawn) [UM0141405:01, Prasugrel]', 'Inh (PKA)', 8.306),
  ('C[S+]([O-])c1ccc(-c2nc(-c3ccc(F)cc3)c(-c3ccncc3)[nH]2)cc1 (stereo not drawn) [UM0127917:04, SB 203580]', 'Inh (PKA)', 16.51),
  ('CCOC(=O)C1=C[C@@H](OC(CC)CC)[C@H](NC(C)=O)[C@@H](N)C1 [UM0141595:01, Oseltamivir]', 'Inh (PKA)', 0.436),
  ('COc1ccc2[nH]c([S@@+]([O-])Cc3ncc(C)c(OC)c3C)nc2c1 [UM0142444:01, Esomeprazole Magnesium]', 'Inh (PKA)', 3.498),
  ('CNC(=O)c1cc(Oc2ccc(NC(=O)Nc3ccc(Cl)c(C(F)(F)F)c3)cc2)ccn1 [UM0130993:02, Sorafenib Tosylate]', 'Inh (PKA)', 7.099),
  ('O=C(Nc1ccc2[nH]nc(-c3ccncc3)c2c1)[C@@H]1CCN(CC(=O)N2CCN(c3ccc(-c4ncccn4)cc3)CC2)C1 [UM0141626:01, SCH772984]', 'Inh (PKA)', 11.73),
  ('CC(C)(C)c1nc(-c2cccc(NS(=O)(=O)c3c(F)cccc3F)c2F)c(-c2ccnc(N)n2)s1 [UM0142241:01, Dabrafenib (GSK2118436)]', 'Inh (PKA)', 30.14),
  ('CNCc1ccc(-c2[nH]c3cc(F)cc4c3c2CCNC4=O)cc1 [UM0142149:01, Rucaparib (free base)]', 'Inh (PKA)', 8.491),
  ('CC(C)(C)c1nc(-c2cccc(NS(=O)(=O)c3c(F)cccc3F)c2F)c(-c2ccnc(N)n2)s1 [UM0141540:01, Dabrafenib Mesylate (GSK-2118436)]', 'Inh (PKA)', 39.79),
  ('Cc1cc(Nc2cc(N3CCN(C)CC3)nc(/C=C/c3ccccc3)n2)n[nH]1 [UM0141725:01, ENMD-2076]', 'Inh (PKA)', 15.95),
  ('NCC1(CC(=O)O)CCCCC1 [UM0118203:03, Gabapentin]', 'Inh (PKA)', 0.7345),
  ('COc1ccc2[nH]c([S@@+]([O-])Cc3ncc(C)c(OC)c3C)nc2c1 [UM0142233:01, Esomeprazole Sodium]', 'Inh (PKA)', 0.8501),
  ('Cc1ccc(Nc2nccc(N(C)c3ccc4c(C)n(C)nc4c3)n2)cc1S(N)(=O)=O [UM0142006:01, Pazopanib Hydrochloride]', 'Inh (PKA)', 14.36),
  ('O=C(/C=C/c1cccnc1)NCCCCC1CCN(C(=O)c2ccccc2)CC1 [UM0141821:01, FK866 (APO866)]', 'Inh (PKA)', 3.817),
  ('CCC(CC)[C@H](NC(C)=O)[C@@H]1[C@H](O)[C@@H](C(=O)O)C[C@H]1NC(=N)N [UM0142420:01, Peramivir Trihydrate]', 'Inh (PKA)', 0.7131),
  ('Cc1ccc(NC(=O)c2ccc(CN3CCN(C)CC3)cc2)cc1Nc1nccc(-c2cccnc2)n1 [UM0127952:03, Imatinib (STI571)]', 'Inh (PKA)', 7.189),
  ('CCOC(=O)[C@@H](N)CCC(=O)N[C@@H](CSCc1ccccc1)C(=O)N[C@@H](C(=O)OCC)c1ccccc1 [UM0142188:01, Ezatiostat hydrochloride]', 'Inh (PKA)', 1.044),
  ('CS(=O)(=O)N1CCN(Cc2cc3nc(-c4cccc5[nH]ncc45)nc(N4CCOCC4)c3s2)CC1 [UM0141556:01, GDC-0941 dimethanesulfonate]', 'Inh (PKA)', 7.081),
  ('C[C@H]1c2cccc(O)c2C(=O)C2=C(O)[C@]3(O)C(=O)C(C(N)=O)=C(O)[C@@H](N(C)C)[C@@H]3[C@@H](O)[C@@H]21 [UM0141681:01, Doxycycline hyclate]', 'Inh (PKA)', 1.233),
  ('c1ccc2c(-c3cnn4cc(-c5ccc(N6CCNCC6)cc5)cnc34)ccnc2c1 [UM0141989:01, LDN-193189]', 'Inh (PKA)', 1.838),
  ('CNCc1ccc(-c2[nH]c3cc(F)cc4c3c2CCNC4=O)cc1 [UM0135471:02, Rucaparib (AG-014699,PF-01367338)]', 'Inh (PKA)', 3.125),
  ('C[S+]([O-])c1ccc(-c2nc(-c3ccc(F)cc3)c(-c3ccncc3)[nH]2)cc1 (stereo not drawn) [UM0142194:01, SB 203580 hydrochloride]', 'Inh (PKA)', 15.97),
  ('C[C@@H](N)[C@H]1CC[C@H](C(=O)Nc2ccncc2)CC1 [UM0141498:01, Y-27632 dihydrochloride]', 'Inh (PKA)', -3.616),
  ('N[C@@H](CC(=O)N1CCn2c(nnc2C(F)(F)F)C1)Cc1cc(F)c(F)cc1F [UM0141674:01, Sitagliptin phosphate monohydrate]', 'Inh (PKA)', 0.152);
